Experiment: chemical genetic growth profiling, strain panel (AID 1159580);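 also: tested at 20 µM; growth read once vehicle control cultures reached saturation at 30 °C; lower values mean less growth of the strain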
Details: S. cerevisiae deletion strains, growth OD, locus YML120C, strain ndi1
Hit rate of the full screen: of about 5,500 compounds, about 2,000 (36%) were called active. Not shown: some 18% with an inconclusive outcome. Rule as the data show it: active = normalized growth mostly below about 0.91 (no sharp cut-off); inconclusive = no clear call, values can overlap the other calls; inactive = mostly above about 0.92. Some of the results follow.
Permitted responses: active, inactive

INSERT INTO results (structure_smiles_string, label) VALUES
  ('CN(C)CCC=C1c2ccccc2CCc2ccccc21', 'inactive'),
  ('O=c1c(-c2ccccc2)coc2cc(O)cc(O)c12', 'inactive'),
  ('CC(=O)Oc1cc(-c2coc3cc(OC(C)=O)c(OC(C)=O)c(OC(C)=O)c3c2=O)cc(OC(C)=O)c1OC(C)=O', 'active');

Exam item: # fetch the recorded call for CN(C)CC/C=C1/c2ccccc2COc2ccccc21 here
Marked response: inactive
